# Test system: HEK293T-Rex XBP1-RLuc
# Assay Notes: EC50 for XBP1-RLuc reporter activation
# Study Conditions: 18 h
Endpoint Name: EC50 for XBP1-RLuc reporter activation

The cases that follow already have their EC50 for XBP1-RLuc reporter activation on record.
[[record]]
smi = "COc1ccc2c(Cl)c(C(=O)Nc3ccccc3C(N)=O)sc2c1"
endpoint_name = "EC50 for XBP1-RLuc reporter activation"
reported_measurement = "> 16.9 µM"

[[record]]
smi = "COc1ccc2oc(=Nc3cc(F)ccc3F)c(C(N)=O)cc2c1"
endpoint_name = "EC50 for XBP1-RLuc reporter activation"
reported_measurement = "> 14.7 µM"

[[record]]
smi = "O=C(Nc1ccc(O)cc1)c1ccc2ccccc2c1"
endpoint_name = "EC50 for XBP1-RLuc reporter activation"
reported_measurement = "> 16.9 µM"

[[record]]
smi = "N#C/C(=C(/O)c1cc(-c2ccccc2)nc2ccccc12)c1nc2ccccc2[nH]1"
endpoint_name = "EC50 for XBP1-RLuc reporter activation"
reported_measurement = "> 15.9 µM"

[[record]]
smi = "COc1ccc(-c2nn(-c3ccccc3)cc2/C=C/C(=O)O)cc1[N+](=O)[O-]"
endpoint_name = "EC50 for XBP1-RLuc reporter activation"
reported_measurement = "> 18.5 µM"

[[record]]
smi = "Nc1cn(-c2ccccc2)nc1-c1cccs1"
endpoint_name = "EC50 for XBP1-RLuc reporter activation"
reported_measurement = "3.71 µM"

[[record]]
smi = "O=C(N/N=C/c1cccc(Cl)c1Cl)c1ccccc1O"
endpoint_name = "EC50 for XBP1-RLuc reporter activation"
reported_measurement = "> 16.9 µM"

[[record]]
smi = "COc1ccccc1/C=C/C(=O)Nc1ccc(Cl)cn1"
endpoint_name = "EC50 for XBP1-RLuc reporter activation"
reported_measurement = "> 15.1 µM"


# compound "Cc1cc(C)c2nc3sc(C(=O)N4CCCCC4)c(N)c3cc2c1" ; its EC50 for XBP1-RLuc reporter activation = > 16.9 µM
